B1: FAM50A (parent)
chain: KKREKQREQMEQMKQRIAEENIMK

variants of: B1; test: protein stability index of a GFP-peptide fusion (GPS, HEK-293T) (PSI 1-6); higher = more stable; conditions: c terminus: a fixed tail appended;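 note: lentivirally expressed fusions sorted by FACS into six bins by GFP to DsRed ratio, PSI derived from sequencing read proportions per bin multiplied by bin number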
The following variants are listed with their measured protein stability index values.

// worked examples, protein stability index included
K24C : 5.14
M10E : 5.14
Q6K : 4.67
Q6W : 3.96
K1H : 4.95
E4I : 4.53

Challenge: I have this variant here, E20Y , and I need its recorded protein stability index.
Response given: 3.62

Challenge: Repeat with M23W
Response given: 4.02

Challenge: Another variant to check: M10D
Response given: 4.81

Challenge: Next variant: K1S
Response given: 5.14

Challenge: Now try M23P .
Response given: 5.46

Challenge: Lookup Q9M
Response given: 4.4

Challenge: Then this variant: E11G
Response given: 4.48

Challenge: Now the same for M23F
Response given: 4.32

Challenge: // repeat for E19P and report
Response given: 4.19

Challenge: Next up: M13A
Response given: 4.95

Challenge: Input Q15W
Response given: 4.29

Challenge: Subsequent entry: K5P
Response given: 5.34

Challenge: What do we get for R16K ?
Response given: 4.83

Challenge: Also need Q6V , thanks.
Response given: 4.49
